- Test System: UniProtKB Q6QLK5
- Sequence (Q6QLK5 whole entry, the tested form may be a part): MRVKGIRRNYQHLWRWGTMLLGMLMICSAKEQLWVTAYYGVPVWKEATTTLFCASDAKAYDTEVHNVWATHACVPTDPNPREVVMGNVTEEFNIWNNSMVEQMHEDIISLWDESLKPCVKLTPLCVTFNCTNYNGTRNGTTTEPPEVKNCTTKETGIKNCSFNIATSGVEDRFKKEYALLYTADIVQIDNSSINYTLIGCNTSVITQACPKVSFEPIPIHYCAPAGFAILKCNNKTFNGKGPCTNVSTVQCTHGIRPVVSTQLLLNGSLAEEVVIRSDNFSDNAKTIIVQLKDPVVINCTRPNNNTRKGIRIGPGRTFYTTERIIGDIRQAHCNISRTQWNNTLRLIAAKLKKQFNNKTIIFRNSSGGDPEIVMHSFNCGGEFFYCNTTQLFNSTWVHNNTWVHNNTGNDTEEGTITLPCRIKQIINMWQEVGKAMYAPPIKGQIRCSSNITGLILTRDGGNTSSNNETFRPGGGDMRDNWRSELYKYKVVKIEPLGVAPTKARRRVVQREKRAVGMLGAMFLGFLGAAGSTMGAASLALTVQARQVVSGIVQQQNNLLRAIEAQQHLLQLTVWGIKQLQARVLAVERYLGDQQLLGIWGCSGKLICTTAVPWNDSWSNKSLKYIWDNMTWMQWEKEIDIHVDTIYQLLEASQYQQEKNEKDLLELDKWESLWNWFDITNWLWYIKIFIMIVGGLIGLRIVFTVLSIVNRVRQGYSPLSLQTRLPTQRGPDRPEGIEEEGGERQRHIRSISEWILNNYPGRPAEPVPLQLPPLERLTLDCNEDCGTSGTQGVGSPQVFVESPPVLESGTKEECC
- Assay Method Text: inhibitors of HIV fusion peptide binding, primary screen, biochemical, uHTS, fluorescence dequenching (AID 1986)
Active and inactive are the calls of the source. No stated cut-off is given here; in the data, actives have a measured IC50 and inactives only a lower limit.
Some molecules, each annotated with its measured IC50.

O=C(COc1ccc2ccccc2c1)Nc1cccc(C(=O)Nc2ccccc2C(=O)O)c1 ... 14.3 µM (active)
O=C(O)c1ccc(Nc2nc(-c3cc4ccccc4oc3=O)cs2)cc1O ... 11.5 µM (active)
COc1ccccc1OCCOc1ccc(/C=C2\C(=N)N3N=C(S(C)(=O)=O)SC3=NC2=O)cc1 ... 33.8 µM (active)
CCOC(=O)c1sc(N2C(=O)C(O)=C(C(=O)c3ccco3)C2c2ccc([N+](=O)[O-])cc2)nc1C (stereo not given) ... 17.6 µM (active)

Let us move to another entry and its IC50.
The observed IC50 for O=C(O)CCN1C(=O)/C(=C\c2cccc(OCC(=O)Nc3ccc(Cl)cc3)c2)SC1=S when tested with UniProtKB Q6QLK5 stands at 13.2 µM (active)
